System: growth hormone secretion
Experiment: GHRP induced growth hormone secretion, intravenous administration (Rat IV)
Format: in vivo
Measurement Conditions: Table III; iv injection, serum GH 10 min after injection
Non-standard residues stand in square brackets, D forms with d. Residues, ends and D or L forms follow the SMILES beside them. *: point of attachment. d2Nal = N[C@H](Cc1ccc2ccccc2c1)C(=O)O; Isonicotinoyl = O=C(c1ccncc1)*
Friendly reminder: RAT IV ED50 below 5 µg is Satisfied, at or above is Not satisfied.

Threshold test, RAT IV ED50 < 5 µg: NCCCC[C@H](NC(=O)[C@H](Cc1ccccc1)NC(=O)[C@@H](Cc1ccc2ccccc2c1)NC(=O)[C@@H](Cc1ccc2ccccc2c1)NC(=O)c1ccncc1)C(N)=O [(pyc) b b F K amide] (Isonicotinoyl-[d2Nal][d2Nal]FK-NH2)
Not satisfied
